molecular target: T1, human PD-1 on transfected cells (human, UniProt Q15116 25-288); test: FACS competition on CHO-S cells expressing human PD-1 against biotinylated Keytruda at 1 µg/ml
T1 construct: also called CHO-S cells expressing human PD-1; human PD-1 transfected CHO-S cells
T1 sequence (Q15116 25-288 limits assumed): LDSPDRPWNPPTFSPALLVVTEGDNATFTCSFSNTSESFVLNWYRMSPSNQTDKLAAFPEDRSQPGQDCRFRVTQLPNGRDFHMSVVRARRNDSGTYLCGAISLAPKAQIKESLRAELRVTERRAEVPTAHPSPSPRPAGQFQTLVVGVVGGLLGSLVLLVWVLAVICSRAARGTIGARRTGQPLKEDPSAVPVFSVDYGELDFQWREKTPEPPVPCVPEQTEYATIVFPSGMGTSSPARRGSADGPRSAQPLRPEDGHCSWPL
Listing of recorded pIC50 by entry.
Just the number, please; pIC50 means minus log10 of the concentration in mol/L.

[
  {
    "BINDER": "2E5 (antibody, human IgG4, V domains shown) VH: QVQLVQSGAEVKKPGSSVKVSCKASGFTFTTYYISWVRQAPGQGLEYLGYINMGSGGTNYNEKFKGRVTITADKSTSTAYMELSSLRSEDTAVYYCAIIGYFDYWGQGTMVTVSS VL: DVVMTQSPLSLPVTLGQPASISCRSSQSLLDSDGGTYLYWFQQRPGQSPRRLIYLVSTLGSGVPDRFSGSGSGTDFTLKISRVEAEDVGVYYCMQLTHWPYTFGQGTKLEIK",
    "pIC50": 8.02
  },
  {
    "BINDER": "1H6 (antibody, human IgG4, V domains shown) VH: QVQLVQSGAEVKKPGSSVKVSCKASGFTFTTYYISWVRQAPGQGLEYLGYINMGSGGTNYNEKFKGRVTITADKSTSTAYMELSSLRSEDTAVYYCAILGYFDYWGQGTMVTVSS VL: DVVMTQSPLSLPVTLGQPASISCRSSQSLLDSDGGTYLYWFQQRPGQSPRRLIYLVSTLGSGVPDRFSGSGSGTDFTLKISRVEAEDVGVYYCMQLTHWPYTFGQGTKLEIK",
    "pIC50": 7.75
  }
]

Q) Need pIC50 of 2G4 (antibody, human IgG4, V domains shown) VH: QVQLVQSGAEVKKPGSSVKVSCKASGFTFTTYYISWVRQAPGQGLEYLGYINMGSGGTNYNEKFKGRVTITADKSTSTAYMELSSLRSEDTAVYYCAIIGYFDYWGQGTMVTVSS VL: DVVMTQSPLSLPVTLGQPASISCRSSQSLLDSDGSTYLYWFQQRPGQSPRRLIYLVSTLGSGVPDRFSGSGSGTDFTLKISRVEAEDVGVYYCMQLTHWPYTFGQGTKLEIK , thanks.
A) 7.76
